- method_summary: amyloid nucleation score (Sup35N fusion, yeast selection) (log enrichment); library NNK2; higher = more nucleation; inactive = no reads after selection;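 also: zero at mode of non-aggregating sequences after 7 days selection at 30°C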

query_sequence: HCHAVDSLNVHFKEFIHRMN
amyloid nucleation score: inactive
//
query_sequence: DNSIRTLEILKSGNIVRGPR
amyloid nucleation score: inactive
//
query_sequence: VLRTPIIHTMGTGQV
amyloid nucleation score: 0.297
//
query_sequence: VTGRAFNVTHGDAVEI
amyloid nucleation score: 0.299

---

- method_summary: amyloid nucleation score (Sup35N fusion, yeast selection) (log enrichment); library NNK1; higher = more nucleation; inactive = no reads after selection
quantity_measured: amyloid nucleation score

substance: YNVGLLGLFRCYAQKVGLWE
endpoint_value: inactive
--
substance: DSRVKRY
endpoint_value: inactive
--
substance: TWSRAQM
endpoint_value: inactive
--
substance: SLLGPIGIIQTWIPTHLDLF
endpoint_value: inactive
